Entries and their EC50
Biological target: T1, human SIRPα variant 1 (human, UniProt P78324 31-504)
T1 construct: full length ORF on transfected CHO-K1 or HEK293 cells; entry includes the signal peptide; also called hSIRPαV1; SIRPαV1
T1 sequence (P78324 31-504 limits assumed, change not shown): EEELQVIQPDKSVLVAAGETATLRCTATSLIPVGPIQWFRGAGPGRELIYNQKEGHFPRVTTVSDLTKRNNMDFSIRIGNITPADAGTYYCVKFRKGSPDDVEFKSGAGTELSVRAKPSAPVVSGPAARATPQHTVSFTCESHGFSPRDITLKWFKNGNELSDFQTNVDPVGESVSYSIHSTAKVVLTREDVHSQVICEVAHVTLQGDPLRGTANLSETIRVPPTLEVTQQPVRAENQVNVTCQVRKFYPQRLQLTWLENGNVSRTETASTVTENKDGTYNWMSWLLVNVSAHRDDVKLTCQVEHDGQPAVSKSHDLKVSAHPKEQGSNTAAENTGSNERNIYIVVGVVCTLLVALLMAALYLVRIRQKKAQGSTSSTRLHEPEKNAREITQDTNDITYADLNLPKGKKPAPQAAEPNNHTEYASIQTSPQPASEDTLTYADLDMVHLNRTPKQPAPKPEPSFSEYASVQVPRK
Assay: CELISA, CHO-K1 transfectants; average of two experiments
Give the quantity in nM, number only.

Some binders with known EC50 results, for comparison:
Binder | EC50 [nM]
hSIRPα.50A.H4L1 (antibody, human IgG4 S228P, kappa, V domains shown, human IgG4 S228P, kappa; also called hSIRPα.50H4L1) VH: EVQLQQSGAELVKPGASVKVSCKASGFTFTNYYIHWVRQRPGQGLEWMGWIYPGNVNTKYNEKFKAKATITADKSTSTAYMELSSLTSEDTAVYYCARPTIIATDFDVWGQGTTVTVSS VL: DIVLTQSPSFLSASVGDRVTITCKASQGVGTAVGWYQQKPGKAPKLLIYWASTRHTGVPDRFSGSGSGTEFTLTISSLQPEDFAAYYCQQYSTYPFTFGGGTKLEIKR | 0.683
hSIRPα.50A.H3L4 (antibody, human IgG4 S228P, kappa, V domains shown, human IgG4 S228P, kappa; also called hSIRPα.50H3L4) VH: EVQLVQSGAEVVKPGASVMISCKASGFTFTNYYIHWVRQRPGQGLEWIGWIYPGNVNTKYNEKFKARVIMTADKSTSTVYMQLSSLTSEDTAVYYCARPTIIATDFDVWGQGTLVTVSS VL: DIQMTQSPSSLSASVGDRVTITCKASQGVGTAVGWYQKKPGKVPKLLIYWASTRHTGVPDRFSGSGSGTDFTLTINGLQPEDVATYYCQQYSTYPFTFGGGTKLEIKR | 1.26
hSIRPα.50A.H1L1 (antibody, human IgG4 S228P, kappa, V domains shown, human IgG4 S228P, kappa; also called hSIRPα.50H1L1) VH: EVQLQQSGAEVVKPGASVKVSCKASGFTFTNYYIHWVRQAPGQGLEWIGWIYPGNVNTKYNEKFKARVTITADKSTSTAYMDLSSLRSEDTAVYYCARPTIIATDFDVWGQGTTVTVSS VL: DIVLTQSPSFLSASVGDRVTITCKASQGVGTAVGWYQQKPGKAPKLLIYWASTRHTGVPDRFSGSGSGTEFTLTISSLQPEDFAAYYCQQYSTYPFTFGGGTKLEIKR | 0.883
hSIRPα.50A.H1L4 (antibody, human IgG4 S228P, kappa, V domains shown, human IgG4 S228P, kappa; also called hSIRPα.50H1L4) VH: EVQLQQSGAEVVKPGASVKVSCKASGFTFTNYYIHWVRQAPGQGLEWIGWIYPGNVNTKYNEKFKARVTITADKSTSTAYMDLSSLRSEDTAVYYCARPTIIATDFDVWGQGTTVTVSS VL: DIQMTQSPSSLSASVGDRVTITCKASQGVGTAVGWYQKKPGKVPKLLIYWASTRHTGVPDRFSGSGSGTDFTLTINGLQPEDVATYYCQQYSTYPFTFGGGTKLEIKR | 1.49

Proceed to the following item.
What does the record list as EC50 for hSIRPα.50A.H4L3 (antibody, human IgG4 S228P, kappa, V domains shown, human IgG4 S228P, kappa; also called hSIRPα.50H4L3) VH: EVQLQQSGAELVKPGASVKVSCKASGFTFTNYYIHWVRQRPGQGLEWMGWIYPGNVNTKYNEKFKAKATITADKSTSTAYMELSSLTSEDTAVYYCARPTIIATDFDVWGQGTTVTVSS VL: ELVMTQSPSSLSASVGDRVTITCKASQGVGTAVGWYQQKPGKAPKLLIYWASTRHTGVPDRFSGSGSGTDFTLAISSLQPEDIADYYCQQYSTYPFTFGGGTKVEIKR ?
0.933
